Target: KRAS G13D (Homo sapiens (Human), UniProt P01116+P62937, G13D)
Sequence (P01116 other isoform, or with tags, fused parts or gaps G13D, one chain of several): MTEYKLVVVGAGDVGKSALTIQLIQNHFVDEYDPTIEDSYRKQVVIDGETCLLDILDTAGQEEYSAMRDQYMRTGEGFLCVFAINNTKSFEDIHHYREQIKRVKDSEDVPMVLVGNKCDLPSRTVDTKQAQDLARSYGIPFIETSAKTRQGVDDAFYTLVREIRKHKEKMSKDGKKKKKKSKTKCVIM
Experiment: Ras-Raf disruption/FRET/MOA assay (BRAF RBD, Cyclophilin A)
Format: biochemical
Settings: read-out: KRAS G13D FRET data IC50
Protocol: Compound is present in plate wells as a 10-point 3-fold dilution series starting at a final concentration of 30 μM. After incubation at 25° C. for 3 hours, a mixture of Anti-His Eu—W1024 and anti-GST allophycocyanin is then added to assay sample wells at final concentrations of 10 nM and 50 nM, respectively, and the reaction incubated for an additional 1.5 hours. […]
assay-endpoint: IC50

Consider the reported IC50 for these compounds:
CCn1c(-c2cccnc2[C@H](C)OC)c2c3cc(ccc31)-c1csc(n1)C[C@H](NC(=O)[C@H](C(C)C)N1CCC3(CCN(S(C)(=O)=O)C3)C1=O)C(=O)N1CCC[C@H](N1)C(=O)OCC(C)(C)C2 (stereo partly drawn) | > 10 µM
CCn1c(-c2cccnc2[C@H](C)OC)c2c3cc(ccc31)-c1csc(n1)C[C@H](NC(=O)[C@H](C(C)C)N(C)C(=O)N1CCO[C@H](c3ccccc3)C1)C(=O)N1CCC[C@H](N1)C(=O)OCC(C)(C)C2 | 0.1 to 1 µM
CCn1c(-c2cccnc2[C@H](C)OC)c2c3cc(ccc31)-c1cc(O)cc(c1)C[C@H](NC(=O)[C@H](C(C)C)N(C)C(=O)[C@H]1C[C@@H]1F)C(=O)N1CCC[C@H](N1)C(=O)OCC(C)(C)C2 | 0.1 to 1 µM
CCn1c(-c2cccnc2[C@H](C)OC)c2c3cc(ccc31)-c1csc(n1)C[C@H](NC(=O)[C@H](C(C)C)N(C)C(=O)N1CCOC[C@H]1C)C(=O)N1CCC[C@H](N1)C(=O)OCC(C)(C)C2 | 0.1 to 1 µM

Proceeding to the next compound to report its IC50.
Which IC50 reading was recorded for the compound CCn1c(-c2cccnc2[C@H](C)OC)c2c3cc(ccc31)-c1csc(n1)C[C@H](NC(=O)[C@H](C(C)C)N(C)C(=O)[C@@H]1[C@@H]3CN(C)C[C@@H]31)C(=O)N1CCC[C@H](N1)C(=O)OCC(C)(C)C2 ? 0.1 to 1 µM

---

Listed compounds paired with reported IC50
Target: KRAS G12C (Homo sapiens (Human), UniProt P01116+P62937, G12C)
Sequence (P01116-2 other isoform, or with tags, fused parts or gaps G12C, one chain of several): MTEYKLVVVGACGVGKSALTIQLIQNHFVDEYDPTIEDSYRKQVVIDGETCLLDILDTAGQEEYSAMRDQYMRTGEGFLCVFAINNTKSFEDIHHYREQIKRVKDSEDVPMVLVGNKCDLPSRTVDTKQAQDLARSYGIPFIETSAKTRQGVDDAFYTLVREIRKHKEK
Test: Ras-Raf disruption/FRET/MOA assay (BRAF RBD, Cyclophilin A)
Type: biochemical
Details: read-out: KRAS G12C FRET IC50

Consider the worked cases shown below.
CCn1c(-c2cccnc2[C@H](C)OC)c2c3cc(ccc31)-c1cc(O)cc(c1)C[C@H](NC(=O)C(C)=C(C)C)C(=O)N1CCC[C@H](N1)C(=O)OCC(C)(C)C2 [Compound A398] | 1000 to 10000 nM
CCn1c(-c2cccnc2[C@H](C)OC)c2c3cc(ccc31)-c1csc(n1)C[C@H](NC(=O)[C@H](C(C)C)N(C)C(=O)N1CC(N(C)C(C)C)C1)C(=O)N1CCC[C@H](N1)C(=O)OCC(C)(C)C2 [Compound A318] | 100 to 1000 nM
CCn1c(-c2cccnc2[C@H](C)OC)c2c3cc(ccc31)-c1csc(n1)C[C@H](NC(=O)[C@H](C(C)C)N(C)C(=O)N(C)[C@H]1CCN(C)C1)C(=O)N1CCC[C@H](N1)C(=O)OCC(C)(C)C2 [Compound A563] | 100 to 1000 nM
CCn1c(-c2cccnc2[C@H](C)OC)c2c3cc(ccc31)-c1csc(n1)C[C@H](NC(=O)[C@H](C(C)C)N(C)C(=O)N1CCN3C(=O)CN(C)C[C@@H]3C1)C(=O)N1CCC[C@H](N1)C(=O)OCC(C)(C)C2 [Compound A536] | 10 to 100 nM

For the compound CCn1c(-c2cccnc2[C@H](C)OC)c2c3cc(ccc31)-c1csc(n1)C[C@H](NC(=O)N1CCC1)C(=O)N1CCC[C@H](N1)C(=O)OCC(C)(C)C2 [Compound A369] , what IC50 is on record? 100 to 1000 nM

Request the reported IC50 associated with CCn1c(-c2cccnc2[C@H](C)OC)c2c3cc(ccc31)-c1csc(n1)C[C@H](NC(=O)[C@H](C(C)C)N(C)C(=O)N1CCC1C(=O)O)C(=O)N1CCC[C@H](N1)C(=O)OCC(C)(C)C2 (stereo partly drawn) [Compound A271] 1000 to 10000 nM

May I ask what IC50 has been recorded for CCn1c(-c2cccnc2[C@H](C)OC)c2c3cc(ccc31)-c1cc(O)cc(c1)C[C@H](NC(=O)[C@H](C(C)C)N(C)C(=O)C1CC1)C(=O)N1CCC[C@H](N1)C(=O)OCC(C)(C)C2 [Compound A224] ? 10 to 100 nM

GET /values?readout=IC50&item= CCn1c(-c2cccnc2[C@H](C)OC)c2c3cc(ccc31)-c1csc(n1)C[C@H](NC(=O)C1CC1)C(=O)N1CCC[C@H](N1)C(=O)OCC(C)(C)C2 [Compound A367] 100 to 1000 nM

Need IC50, item CCn1c(-c2cccnc2[C@H](C)OC)c2c3cc(ccc31)-c1cc(O)cc(c1)C[C@H](NC(=O)[C@H](C(C)C)N(C)C(=O)C13CCC(CO1)C3)C(=O)N1CCC[C@H](N1)C(=O)OCC(C)(C)C2 [Compound A411] 10 to 100 nM

---

Molecular target: KRAS G12V (Homo sapiens (Human), UniProt P01116+P62937, G12V)
Sequence (P01116 other isoform, or with tags, fused parts or gaps G12V): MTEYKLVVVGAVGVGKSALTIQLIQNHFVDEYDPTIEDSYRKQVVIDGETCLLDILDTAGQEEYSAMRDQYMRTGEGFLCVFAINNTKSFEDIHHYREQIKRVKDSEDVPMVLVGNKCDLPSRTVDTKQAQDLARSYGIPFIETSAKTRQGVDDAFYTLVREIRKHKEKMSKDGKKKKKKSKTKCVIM
Sequence (P62937 whole entry): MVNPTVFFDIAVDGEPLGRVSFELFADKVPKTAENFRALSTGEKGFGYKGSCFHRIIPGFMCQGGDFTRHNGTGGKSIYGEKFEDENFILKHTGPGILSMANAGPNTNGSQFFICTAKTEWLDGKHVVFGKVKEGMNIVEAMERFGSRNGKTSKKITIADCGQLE
Test: Ras-Raf disruption/FRET/MOA assay (BRAF RBD, Cyclophilin A)
Assay type: biochemical
Conditions: read-out: KRAS G12V FRET IC50
assay-endpoint: IC50

Example entries begin here.
CCn1c(-c2cccnc2[C@H](C)OC)c2c3cc(ccc31)-c1cc(O)cc(c1)C[C@H](NC(=O)[C@H](C(C)C)N(C)C(=O)[C@H]1CC[C@@H](C(N)=O)O1)C(=O)N1CCC[C@H](N1)C(=O)OCC(C)(C)C2 [Compound A414] | 0.1 to 1 µM
CCOC1c2nc(cs2)-c2ccc3c(c2)c(c(-c2cc(C4CC5COCC(C4)N5C4CC4)cnc2C(C)OC)n3CC)CC(C)(C)COC(=O)C2CCCN(N2)C(=O)C1NC(=O)C1C(C)C1C (centres unmarked) [Compound A483] | 0.1 to 1 µM
CCn1c(-c2cnccc2COC)c2c3cc(ccc31)-c1cc(O)cc(c1)C[C@H](NC(=O)[C@H](C(C)C)N(C)C(=O)O[C@@H]1CCOC1)C(=O)N1CCC[C@H](N1)C(=O)OCC(C)(C)C2 [Compound A82] | 1 to 10 µM
CCn1c(-c2cccnc2[C@H](C)OC)c2c3cc(ccc31)-c1csc(n1)C[C@H](NC(=O)[C@H](C(C)C)N(C)C(=O)N1CCO[C@@H](c3ccccc3)C1)C(=O)N1CCC[C@H](N1)C(=O)OCC(C)(C)C2 [Compound A600] | 0.1 to 1 µM
CCn1c(-c2cccnc2[C@H](C)OC)c2c3cc(ccc31)-c1cc(O)cc(c1)C[C@H](NC(=O)[C@@H]1[C@H](C)CCN1C(C)=O)C(=O)N1CCC[C@H](N1)C(=O)OCC(C)(C)C2 [Compound A144] | 1 to 10 µM
CCn1c(-c2cccnc2[C@H](C)OC)c2c3cc(ccc31)-c1cccc(c1)C[C@H](NC(=O)[C@H](C(C)C)N(C)C(C)=O)C(=O)N1CCC[C@H](N1)C(=O)OCC(C)(C)C2 [Compound A61] | 1 to 10 µM

# input compound: CO[C@@H](C)c1ncccc1-c1c2c3cc(ccc3n1CC(F)(F)F)-c1csc(n1)C[C@H](NC(=O)[C@H](C(C)C)N(C)C(=O)N1CC(N(C)C)C1)C(=O)N1CCC[C@H](N1)C(=O)OCC(C)(C)C2 [Compound A303] ; wanted: its IC50 0.1 to 1 µM

Report IC50 for CCn1c(-c2cccnc2[C@H](C)OC)c2c3cc(ccc31)-c1cc(c3cn[nH]c3c1)C[C@H](NC(=O)[C@H](C(C)C)N(C)C(C)=O)C(=O)N1CCC[C@H](N1)C(=O)OCC(C)(C)C2 [Compound A388] please. 1 to 10 µM

---

Target: KRAS G12D (Homo sapiens (Human), UniProt P01116+P62937, G12D)
Sequence (P01116 other isoform, or with tags, fused parts or gaps G12D, one chain of several): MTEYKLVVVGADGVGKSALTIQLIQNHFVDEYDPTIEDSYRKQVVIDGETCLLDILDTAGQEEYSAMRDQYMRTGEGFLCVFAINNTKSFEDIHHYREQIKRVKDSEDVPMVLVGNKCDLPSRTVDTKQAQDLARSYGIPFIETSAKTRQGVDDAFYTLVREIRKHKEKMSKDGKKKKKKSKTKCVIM
Assay: Ras-Raf disruption/FRET/MOA assay, KRAS G12D
Assay type: biochemical
Details: read-out: KRAS G12D FRET IC50
pIC50: −log10 of the molar value.
assay-endpoint: pIC50

CCn1c(-c2cccnc2[C@H](C)OC)c2c3cc(ccc31)-c1cc(O)cc(c1)C[C@H](NC(=O)[C@H](C(C)C)N1CC[C@@]3(CCC(C(=O)[C@@H]4N[C@@H]4C4CC4)C3)C1=O)C(=O)N1CCC[C@H](N1)C(=O)OCC(C)(C)C2 (stereo partly shown) | 6.00 to 7.00
CCn1c(-c2cnccc2COC)c2c3cc(ccc31)-c1cccc(c1)C[C@H](NC(=O)[C@H](C(C)C)N1CC[C@@H](CN=C=NCCOC)C1)C(=O)N1CCC[C@H](N1)C(=O)OCC(C)(C)C2 | 5.00 to 6.00
CCn1c(-c2cnccc2COC)c2c3cc(ccc31)-c1cccc(c1)C[C@H](NC(=O)[C@H](C(C)C)N(C)C(=O)CCN=C=Nc1ccc(N3CCOCC3)cc1)C(=O)N1CCC[C@H](N1)C(=O)OCC(C)(C)C2 | 5.00 to 6.00

Let's switch to this compound now.
Fill blank: measured pIC50 of the compound CCn1c(-c2cnccc2COC)c2c3cc(ccc31)-c1cc(O)cc(c1)C[C@H](NC(=O)[C@H](C(C)C)N(C)C(=O)[C@H]1CCN(C(=O)[C@@H]3CN3)C1)C(=O)N1CCC[C@H](N1)C(=O)OCC(C)(C)C2 is ____. 6.00 to 7.00
